FYI, the data here is from patent US7968595B2.

system: ZR-75-1; assay: Caspase activation assay in ZR-75-1 cells; assay type: cell-based; settings: Homo sapiens, ZR751 cells, 24 h incubation, read-out: Caspase activation potency EC50 ZR751
Documented EC50 across a set of compounds
Report only the number, with the unit nM understood.

COc1cc([C@H]2C(C#N)=C(N)Oc3c2ccc(N)c3N)cc(Br)c1OC : 19
COc1cc(C2C(C#N)=C(N)Oc3c2ccc(N)c3N)cc(Br)c1OC (racemic) : 35

Look up and state reported EC50 for `COc1cc([C@@H]2C(C#N)=C(N)Oc3c2ccc(N)c3N)cc(Br)c1OC`
2010

----------
test system: DLD-1; assay: Caspase activation assay in DLD-1 cells; type: cell-based; settings: Homo sapiens, 24 h incubation, read-out: Caspase activation potency EC50 DLD-1
quantityName: pEC50
Here pEC50 is given on a logarithmic scale as minus log10 of the concentration in mol/L.

COc1cc([C@H]2C(C#N)=C(N)Oc3c2ccc(N)c3N)cc(Br)c1OC : 7.24
COc1cc([C@@H]2C(C#N)=C(N)Oc3c2ccc(N)c3N)cc(Br)c1OC : 5.34

Look up and state reported pEC50 for COc1cc(C2C(C#N)=C(N)Oc3c2ccc(N)c3N)cc(Br)c1OC (racemic)
7.11

----------
system: T-47D; assay: Caspase activation assay in T-47D cells; format: cell-based; settings: Homo sapiens; T47D cells, 24 h incubation; read-out: Caspase activation potency EC50 T47D
quantityName: EC50

COc1cc([C@H]2C(C#N)=C(N)Oc3c2ccc(NC(=O)[C@H](C)N)c3N)cc(Br)c1OC : 52 nM
COc1cc([C@H]2C(C#N)=C(N)Oc3c2ccc(NC(=O)CN)c3N)cc(Br)c1OC : 60 nM

Look up and state reported EC50 for `COc1cc([C@H]2C(C#N)=C(N)Oc3c2ccc(NC(=O)CNC(=O)OCC2c4ccccc4-c4ccccc42)c3N)cc(Br)c1OC`
2440 nM

Look up and state reported EC50 for COc1cc(C2C(C#N)=C(N)Oc3c2ccc(NC(=O)[C@H](N)CCCCN)c3N)cc(Br)c1OC (some centres unmarked)
1420 nM

Look up and state reported EC50 for COc1cc(C2C(C#N)=C(N)Oc3c2ccc(NC(=O)C[N+](C)(C)C)c3N)cc(Br)c1OC (centres unmarked)
> 10000 nM

Look up and state reported EC50 for COc1cc(C2C(C#N)=C(N)Oc3c2ccc(NC(=O)C2CCCN2)c3N)cc(Br)c1OC (centres unmarked)
3900 nM

Look up and state reported EC50 for COc1cc(C2C(C#N)=C(N)Oc3c2ccc(N)c3N)cc(Br)c1OC (racemic)
42 nM

Look up and state reported EC50 for `COc1cc([C@H]2C(C#N)=C(N)Oc3c2ccc(NC(=O)[C@H](C)NC(=O)OCC2c4ccccc4-c4ccccc42)c3N)cc(Br)c1OC`
2880 nM

Look up and state reported EC50 for `COc1cc([C@@H]2C(C#N)=C(N)Oc3c2ccc(N)c3N)cc(Br)c1OC`
2490 nM

Look up and state reported EC50 for COc1cc(C2C(C#N)=C(N)Oc3c2ccc(NC(=O)C(N)COC(C)=O)c3N)cc(Br)c1OC (centres unmarked)
4120 nM

----------
Documented EC50 across a set of compounds
test system: T-47D; assay: Caspase activation assay in T-47D cells; type: cell-based; details: Homo sapiens; T47D cells, 24 h incubation; read-out: Caspase activation potency EC50 T47D
Report only the number, with the unit nM understood.

COc1cc([C@H]2C(C#N)=C(N)Oc3c2ccc(N)c3N)cc(Br)c1OC [Compound 1R] : 21
COc1cc(C2C(C#N)=C(N)Oc3c2ccc(NC(=O)CN(C)C)c3N)cc(Br)c1OC (stereo not shown) [A] : 2540
COc1cc(C2C(C#N)=C(N)Oc3c2ccc(NC(=O)CCCN)c3N)cc(Br)c1OC (stereo not shown) [B] : 5500

Consider the additional compound presented here.
Look up and state reported EC50 for COc1cc(C2C(C#N)=C(N)Oc3c2ccc(NC(=O)CN)c3N)cc(Br)c1OC (stereo not shown) [C]
160
